# experimental_target: Complement component 3 (C3) (Homo sapiens) (UniProt P01024+P01024)
# Sequence (P01024 23-667, chain 1 of 2): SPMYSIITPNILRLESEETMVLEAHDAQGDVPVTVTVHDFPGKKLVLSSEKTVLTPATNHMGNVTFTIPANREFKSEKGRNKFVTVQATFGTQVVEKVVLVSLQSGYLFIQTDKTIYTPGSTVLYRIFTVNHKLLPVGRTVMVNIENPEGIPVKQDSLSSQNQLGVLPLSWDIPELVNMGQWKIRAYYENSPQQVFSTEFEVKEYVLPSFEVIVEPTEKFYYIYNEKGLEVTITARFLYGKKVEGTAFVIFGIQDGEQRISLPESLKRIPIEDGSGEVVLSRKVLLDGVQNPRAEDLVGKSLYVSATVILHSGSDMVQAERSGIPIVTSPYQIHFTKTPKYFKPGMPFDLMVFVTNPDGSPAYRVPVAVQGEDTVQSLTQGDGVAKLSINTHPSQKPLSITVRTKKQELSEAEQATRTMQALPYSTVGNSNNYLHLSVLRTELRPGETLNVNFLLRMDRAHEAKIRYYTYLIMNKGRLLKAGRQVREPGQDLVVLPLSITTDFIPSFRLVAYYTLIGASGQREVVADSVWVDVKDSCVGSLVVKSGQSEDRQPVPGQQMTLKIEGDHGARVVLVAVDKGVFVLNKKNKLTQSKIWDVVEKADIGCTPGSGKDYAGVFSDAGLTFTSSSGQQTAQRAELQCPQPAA
# Sequence (P01024 672-1663, chain 2 of 2): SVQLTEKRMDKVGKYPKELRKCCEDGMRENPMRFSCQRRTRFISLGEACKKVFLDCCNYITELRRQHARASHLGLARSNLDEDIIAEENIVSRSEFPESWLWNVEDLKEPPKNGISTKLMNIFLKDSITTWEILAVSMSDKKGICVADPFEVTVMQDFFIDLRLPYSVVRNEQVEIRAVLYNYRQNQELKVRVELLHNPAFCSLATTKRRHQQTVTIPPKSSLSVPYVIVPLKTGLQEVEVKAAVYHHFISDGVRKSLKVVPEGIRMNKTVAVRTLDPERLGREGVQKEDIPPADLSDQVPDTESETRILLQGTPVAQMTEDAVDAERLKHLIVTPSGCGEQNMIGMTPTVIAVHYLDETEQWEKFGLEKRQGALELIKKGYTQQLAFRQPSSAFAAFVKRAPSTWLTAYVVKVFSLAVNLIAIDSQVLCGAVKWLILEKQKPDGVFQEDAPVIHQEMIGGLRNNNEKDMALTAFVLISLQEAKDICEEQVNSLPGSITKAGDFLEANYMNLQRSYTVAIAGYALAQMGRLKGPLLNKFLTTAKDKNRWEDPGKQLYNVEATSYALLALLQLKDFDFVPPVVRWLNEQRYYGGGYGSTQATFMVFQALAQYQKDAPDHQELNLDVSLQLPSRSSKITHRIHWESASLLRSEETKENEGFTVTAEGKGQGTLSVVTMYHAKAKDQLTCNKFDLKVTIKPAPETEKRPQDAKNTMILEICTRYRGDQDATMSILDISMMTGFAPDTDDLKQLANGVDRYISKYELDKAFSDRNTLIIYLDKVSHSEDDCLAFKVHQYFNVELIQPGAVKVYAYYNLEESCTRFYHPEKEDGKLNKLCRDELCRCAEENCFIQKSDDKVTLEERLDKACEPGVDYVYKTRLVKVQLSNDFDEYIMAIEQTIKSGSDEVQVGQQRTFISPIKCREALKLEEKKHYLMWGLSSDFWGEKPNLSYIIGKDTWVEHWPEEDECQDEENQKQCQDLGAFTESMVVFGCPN
# experimental_details: filter
# protocol_conditions: all U = NapdU; C3-spacer replaces G30; 3'-3' idT; SB18T0.01, 37C
pKd: −log10 of the molar value.
readout_name: pKd

INSERT INTO measurements (primary_sequence, readout_name, reading) VALUES
  ('CCGGUGACUCAAUAGUCCGUACGUUCCCG [8491-94_52]', 'pKd', 10.30);

* * *

# experimental_target: Complement component 3 (C3) (Homo sapiens) (UniProt P01024+P01024)
# experimental_details: filter
# protocol_conditions: all U = NapdU; 2'-OMe at 1,3,5,7,13,28; 3'-3' idT; SB18T0.01, 37C
pKd: −log10 of the molar value.
readout_name: pKd

INSERT INTO assay_data (primary_sequence, reading) VALUES
  ('CGGUGACUCAAUAGUCCGUACGUUCCCG [8491-94_88]', 10.61);
